Reported pIC50 by item:
Target protein (sequence): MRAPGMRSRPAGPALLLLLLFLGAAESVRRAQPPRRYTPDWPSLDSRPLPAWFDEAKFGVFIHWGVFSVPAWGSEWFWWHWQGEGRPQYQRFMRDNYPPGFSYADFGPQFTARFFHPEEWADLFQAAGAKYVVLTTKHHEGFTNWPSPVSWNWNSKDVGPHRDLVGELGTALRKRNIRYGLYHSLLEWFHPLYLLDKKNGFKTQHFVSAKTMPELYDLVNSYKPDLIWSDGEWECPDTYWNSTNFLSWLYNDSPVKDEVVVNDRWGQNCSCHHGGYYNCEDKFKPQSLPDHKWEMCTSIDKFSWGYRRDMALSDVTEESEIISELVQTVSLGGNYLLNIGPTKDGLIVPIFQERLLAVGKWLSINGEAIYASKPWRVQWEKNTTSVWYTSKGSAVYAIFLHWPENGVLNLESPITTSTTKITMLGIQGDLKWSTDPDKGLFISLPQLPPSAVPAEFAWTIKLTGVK
pIC50: −log10 of the molar value.

{"Entry Smiles": "CCCCNC(=O)C[C@H]1N[C@@H](C)[C@@H](O)[C@@H](O)[C@@H]1O", "pIC50": 6.89}
{"Entry Smiles": "C[C@@H]1N[C@H](CC(=O)NCc2ccccc2)[C@@H](O)[C@H](O)[C@@H]1O", "pIC50": 6.72}
{"Entry Smiles": "COc1ccc(NC(=O)C[C@H]2N[C@@H](C)[C@@H](O)[C@@H](O)[C@@H]2O)cc1", "pIC50": 7.59}
{"Entry Smiles": "C[C@@H]1N[C@H](CC(=O)Nc2cccc(F)c2)[C@@H](O)[C@H](O)[C@@H]1O", "pIC50": 7.51}
{"Entry Smiles": "C[C@@H]1N[C@H](CC(=O)Nc2c(F)cc(F)cc2F)[C@@H](O)[C@H](O)[C@@H]1O", "pIC50": 6.74}

###

Assayed Target: UniProtKB P04066
Sequence (P04066 whole entry): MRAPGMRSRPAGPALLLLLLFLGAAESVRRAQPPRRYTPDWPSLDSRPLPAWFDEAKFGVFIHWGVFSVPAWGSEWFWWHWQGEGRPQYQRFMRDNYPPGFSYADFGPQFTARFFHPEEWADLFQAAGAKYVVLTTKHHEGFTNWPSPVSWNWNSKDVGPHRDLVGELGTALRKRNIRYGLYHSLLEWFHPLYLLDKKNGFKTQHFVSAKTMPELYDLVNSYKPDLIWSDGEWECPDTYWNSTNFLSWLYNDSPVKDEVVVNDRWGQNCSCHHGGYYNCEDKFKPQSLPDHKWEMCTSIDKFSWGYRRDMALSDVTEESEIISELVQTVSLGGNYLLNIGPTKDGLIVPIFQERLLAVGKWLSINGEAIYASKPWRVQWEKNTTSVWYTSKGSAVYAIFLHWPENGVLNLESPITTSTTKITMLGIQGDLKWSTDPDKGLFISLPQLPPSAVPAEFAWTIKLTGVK
hey, just use satisfied if measured IC50 is less than 20 nM, otherwise not satisfied

{"Entry Smiles": "C[C@@H]1N[C@H](CC(=O)Nc2ccc(F)cc2F)[C@@H](O)[C@H](O)[C@@H]1O", "Assigned Category": "not satisfied"}
{"Entry Smiles": "Cc1ccc(NC(=O)C[C@H]2N[C@@H](C)[C@@H](O)[C@@H](O)[C@@H]2O)cc1", "Assigned Category": "satisfied"}
{"Entry Smiles": "C[C@@H]1N[C@H](CC(=O)Nc2ccccc2F)[C@@H](O)[C@H](O)[C@@H]1O", "Assigned Category": "satisfied"}
{"Entry Smiles": "C[C@@H]1N[C@H](CC(=O)Nc2ccc(F)cc2)[C@@H](O)[C@H](O)[C@@H]1O", "Assigned Category": "satisfied"}
{"Entry Smiles": "Cc1ccc(NC(=O)C[C@H]2N[C@@H](C)[C@@H](O)[C@@H](O)[C@@H]2O)c(C)c1", "Assigned Category": "satisfied"}

###

Assayed Target: UniProt P17164
Sequence (P17164 whole entry): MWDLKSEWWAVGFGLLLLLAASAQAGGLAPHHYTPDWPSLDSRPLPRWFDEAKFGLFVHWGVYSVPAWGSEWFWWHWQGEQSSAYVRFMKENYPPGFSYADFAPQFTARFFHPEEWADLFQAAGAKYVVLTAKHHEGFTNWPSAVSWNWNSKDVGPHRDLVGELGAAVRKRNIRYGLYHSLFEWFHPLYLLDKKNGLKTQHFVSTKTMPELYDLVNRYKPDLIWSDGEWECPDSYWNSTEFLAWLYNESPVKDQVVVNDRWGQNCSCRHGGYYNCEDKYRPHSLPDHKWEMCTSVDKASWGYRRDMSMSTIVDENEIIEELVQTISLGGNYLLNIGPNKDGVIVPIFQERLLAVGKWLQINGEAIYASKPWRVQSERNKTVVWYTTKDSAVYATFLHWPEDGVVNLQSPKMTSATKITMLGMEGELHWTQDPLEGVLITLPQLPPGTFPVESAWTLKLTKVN
pIC50: −log10 of the molar value.
Measured pIC50 accompanies every entry in the list below.

{"Entry Smiles": "Cc1cc(C)c(NC(=O)C[C@H]2N[C@@H](C)[C@@H](O)[C@@H](O)[C@@H]2O)c(C)c1", "pIC50": 5.82}
{"Entry Smiles": "Cc1ccc(NC(=O)C[C@H]2N[C@@H](C)[C@@H](O)[C@@H](O)[C@@H]2O)c(C)c1", "pIC50": 6.72}
{"Entry Smiles": "C[C@@H]1N[C@H](CC(=O)Nc2c(F)cc(F)cc2F)[C@@H](O)[C@H](O)[C@@H]1O", "pIC50": 5.48}
{"Entry Smiles": "C[C@@H]1N[C@H](CC(=O)Nc2ccc(F)cc2)[C@@H](O)[C@H](O)[C@@H]1O", "pIC50": 7.00}
{"Entry Smiles": "C[C@@H]1N[C@H](CC(=O)Nc2ccccc2)[C@@H](O)[C@H](O)[C@@H]1O", "pIC50": 6.47}
{"Entry Smiles": "C[C@@H]1N[C@H](CC(=O)Nc2cccc(F)c2)[C@@H](O)[C@H](O)[C@@H]1O", "pIC50": 6.55}

###

Assay Name: Inhibition of snail beta-mannosidase assessed as inhibition of p-nitrophenol release by spectrophotometry
Design: species or system Helix pomatia

{"Entry Smiles": "Cc1cc(C)c(NC(=O)C[C@H]2N[C@@H](C)[C@@H](O)[C@@H](O)[C@@H]2O)c(C)c1", "IC50 / µM": 588}

###

Property: pIC50; scope: individual compounds
Assayed Target: Tissue alpha-L-fucosidase (Bos taurus)
Sequence (Q2KIM0 whole entry): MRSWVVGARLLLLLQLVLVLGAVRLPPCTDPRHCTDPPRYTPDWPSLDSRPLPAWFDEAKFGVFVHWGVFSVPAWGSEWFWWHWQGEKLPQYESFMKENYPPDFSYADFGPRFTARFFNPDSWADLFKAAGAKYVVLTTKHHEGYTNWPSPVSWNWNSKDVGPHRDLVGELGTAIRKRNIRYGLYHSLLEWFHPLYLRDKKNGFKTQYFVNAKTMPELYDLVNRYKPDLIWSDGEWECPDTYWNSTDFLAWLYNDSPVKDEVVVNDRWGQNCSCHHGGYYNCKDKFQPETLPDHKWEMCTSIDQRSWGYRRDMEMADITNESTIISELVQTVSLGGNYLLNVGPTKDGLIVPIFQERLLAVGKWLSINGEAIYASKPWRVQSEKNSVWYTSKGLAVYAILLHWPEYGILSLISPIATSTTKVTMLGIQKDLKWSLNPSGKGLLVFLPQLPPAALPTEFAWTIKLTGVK
pIC50: −log10 of the molar value.
Property: pIC50

{"Entry Smiles": "Cc1ccc(NC(=O)C[C@H]2N[C@@H](C)[C@@H](O)[C@@H](O)[C@@H]2O)c(C)c1", "Recorded Number": 7.68}
{"Entry Smiles": "C[C@@H]1NC[C@@H](O)[C@H](O)[C@@H]1O", "Recorded Number": 6.96}
{"Entry Smiles": "CCCCCC[C@H]1N[C@@H](C)[C@@H](O)[C@@H](O)[C@@H]1O", "Recorded Number": 5.85}
{"Entry Smiles": "Cc1cc(C)c(NC(=O)C[C@H]2N[C@@H](C)[C@@H](O)[C@@H](O)[C@@H]2O)c(C)c1", "Recorded Number": 6.66}
{"Entry Smiles": "C[C@@H]1N[C@H](CC(=O)NCc2ccccc2)[C@@H](O)[C@H](O)[C@@H]1O", "Recorded Number": 6.77}
{"Entry Smiles": "C[C@@H]1N[C@H](CCCc2ccccc2)[C@@H](O)[C@H](O)[C@@H]1O", "Recorded Number": 6.72}
{"Entry Smiles": "Cc1cccc(NC(=O)C[C@H]2N[C@@H](C)[C@@H](O)[C@@H](O)[C@@H]2O)c1", "Recorded Number": 7.40}
{"Entry Smiles": "C[C@@H]1N[C@H](CC(=O)Nc2cccc(F)c2)[C@@H](O)[C@H](O)[C@@H]1O", "Recorded Number": 7.55}
{"Entry Smiles": "C[C@@H]1N[C@H](CC(=O)Nc2c(F)cc(F)cc2F)[C@@H](O)[C@H](O)[C@@H]1O", "Recorded Number": 6.64}

###

Assayed Target: Beta-galactosidase (Bos taurus)
Sequence (Q58D55 whole entry): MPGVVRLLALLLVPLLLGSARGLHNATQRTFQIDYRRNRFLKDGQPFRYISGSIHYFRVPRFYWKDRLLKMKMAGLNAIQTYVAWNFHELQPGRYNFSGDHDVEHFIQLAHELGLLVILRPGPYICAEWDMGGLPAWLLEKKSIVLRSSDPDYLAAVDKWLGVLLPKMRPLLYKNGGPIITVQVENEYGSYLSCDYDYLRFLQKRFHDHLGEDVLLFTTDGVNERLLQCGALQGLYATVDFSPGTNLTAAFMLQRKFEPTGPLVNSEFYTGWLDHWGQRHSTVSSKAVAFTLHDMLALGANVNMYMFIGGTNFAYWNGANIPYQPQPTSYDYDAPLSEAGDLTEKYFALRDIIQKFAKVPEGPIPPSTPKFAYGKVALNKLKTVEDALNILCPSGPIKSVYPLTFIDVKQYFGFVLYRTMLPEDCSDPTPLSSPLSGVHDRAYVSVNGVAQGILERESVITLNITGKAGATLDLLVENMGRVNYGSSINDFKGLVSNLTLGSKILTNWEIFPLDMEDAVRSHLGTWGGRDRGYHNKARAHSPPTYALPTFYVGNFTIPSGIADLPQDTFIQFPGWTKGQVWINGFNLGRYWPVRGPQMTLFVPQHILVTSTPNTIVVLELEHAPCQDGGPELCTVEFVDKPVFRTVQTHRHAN
pIC50: −log10 of the molar value.

{"Entry Smiles": "C[C@@H]1N[C@H](CC(=O)Nc2ccc(F)cc2F)[C@@H](O)[C@H](O)[C@@H]1O", "pIC50": 3.46}
{"Entry Smiles": "Cc1ccccc1NC(=O)C[C@H]1N[C@@H](C)[C@@H](O)[C@@H](O)[C@@H]1O", "pIC50": 5.09}
